Measured melting point values are reported for all entries that follow.

Guide cases for melting point, answers given:
O=C1CSC(c2c(-c3ccccc3)nc3sccn23)N1c1ccc(Br)cc1 (centres unmarked) = 159 to 161 °C
CC1SC(c2c(-c3ccccc3)nc3sccn23)N(c2ccc(Cl)cc2Cl)C1=O (centres unmarked) = 151 to 153 °C
O=C1CSC(c2c(-c3ccccc3)nc3sccn23)N1c1ccc(Cl)cc1 (centres unmarked) = 177 to 179 °C

*Q* Any idea what melting point was measured for CC1SC(c2c(-c3ccccc3)nc3sccn23)N(c2ccc(F)cc2)C1=O (centres unmarked) ?
*A* 165 to 167 °C

*Q* Same thing, different compound: COc1ccc(N2C(=O)CSC2c2c(-c3ccccc3)nc3sccn23)cc1 (centres unmarked)
*A* 160 to 162 °C

====

# systemName: EGFR kinase (Homo sapiens)
# Sequence (P00533 25-1210): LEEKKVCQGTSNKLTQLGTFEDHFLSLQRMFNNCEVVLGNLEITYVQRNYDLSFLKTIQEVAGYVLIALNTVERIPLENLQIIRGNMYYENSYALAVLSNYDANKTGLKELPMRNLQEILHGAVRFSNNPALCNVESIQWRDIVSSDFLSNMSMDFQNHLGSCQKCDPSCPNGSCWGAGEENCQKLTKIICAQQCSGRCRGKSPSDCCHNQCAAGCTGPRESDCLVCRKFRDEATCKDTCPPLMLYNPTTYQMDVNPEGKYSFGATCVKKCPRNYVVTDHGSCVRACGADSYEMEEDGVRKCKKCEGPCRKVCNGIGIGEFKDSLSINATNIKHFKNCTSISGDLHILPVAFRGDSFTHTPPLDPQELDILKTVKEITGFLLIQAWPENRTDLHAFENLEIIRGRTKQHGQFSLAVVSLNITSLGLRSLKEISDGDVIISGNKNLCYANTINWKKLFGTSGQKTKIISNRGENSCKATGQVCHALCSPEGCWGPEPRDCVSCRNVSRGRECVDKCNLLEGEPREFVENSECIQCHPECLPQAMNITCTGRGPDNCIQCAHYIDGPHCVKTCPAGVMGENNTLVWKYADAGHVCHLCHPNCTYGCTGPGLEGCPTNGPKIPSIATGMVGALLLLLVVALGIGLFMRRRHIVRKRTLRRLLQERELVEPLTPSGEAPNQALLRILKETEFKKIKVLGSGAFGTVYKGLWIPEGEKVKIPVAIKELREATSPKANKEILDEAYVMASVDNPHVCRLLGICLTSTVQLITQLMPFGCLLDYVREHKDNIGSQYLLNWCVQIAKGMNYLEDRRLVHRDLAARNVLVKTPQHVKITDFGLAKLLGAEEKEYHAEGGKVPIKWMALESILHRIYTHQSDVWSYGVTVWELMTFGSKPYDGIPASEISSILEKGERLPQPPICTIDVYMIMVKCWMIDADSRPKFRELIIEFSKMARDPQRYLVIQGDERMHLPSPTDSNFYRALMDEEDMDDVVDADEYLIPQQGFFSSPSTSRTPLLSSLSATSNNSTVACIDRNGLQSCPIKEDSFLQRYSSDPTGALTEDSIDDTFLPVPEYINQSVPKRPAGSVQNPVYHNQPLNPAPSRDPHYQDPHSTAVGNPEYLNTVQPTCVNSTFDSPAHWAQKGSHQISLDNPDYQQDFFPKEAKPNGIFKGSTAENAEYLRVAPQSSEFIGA
# methodDescription: In vitro EGFR kinase inhibitory assay (ELISA, phospho-EGFR in A549 cell lysates)
experimentalReadout: IC50 (µM)

CC1SC(c2c(-c3ccccc3)nc3sccn23)N(c2ccc(Cl)cc2Cl)C1=O (centres unmarked) = 36
CC1SC(c2c(-c3ccccc3)nc3sccn23)N(c2ccc(Cl)cc2)C1=O (centres unmarked) = 24.3
Cc1ccc(N2C(=O)C(C)SC2c2c(-c3ccccc3)nc3sccn23)cc1 (centres unmarked) = 49.7
CC1SC(c2c(-c3ccccc3)nc3sccn23)N(c2ccc(Br)cc2)C1=O (centres unmarked) = 18.4
COc1ccc(N2C(=O)C(C)SC2c2c(-c3ccccc3)nc3sccn23)cc1 (centres unmarked) = 46.5
CC1SC(c2c(-c3ccccc3)nc3sccn23)N(c2ccc(F)cc2)C1=O (centres unmarked) = 28.6
Cc1ccc(N2C(=O)CSC2c2c(-c3ccccc3)nc3sccn23)cc1 (centres unmarked) = 29.3
CC1SC(c2c(-c3ccccc3)nc3sccn23)N(c2ccc([N+](=O)[O-])cc2)C1=O (centres unmarked) = 57.1

P = O=C1CSC(c2c(-c3ccccc3)nc3sccn23)N1c1ccc(Br)cc1 (centres unmarked)
Q = COc1ccc(N2C(=O)CSC2c2c(-c3ccccc3)nc3sccn23)cc1 (centres unmarked)
*Q* Of the two listed items, P and Q , which carries the larger IC50 figure? State the label of the item chosen.
*A* Q

====

experimentalReadout: melting point

Guide cases for melting point, answers given:
Cc1ccc(N2C(=O)CSC2c2c(-c3ccccc3)nc3sccn23)cc1 (stereo not shown) = 153 to 155 °C
Cc1ccc(N2C(=O)C(C)SC2c2c(-c3ccccc3)nc3sccn23)cc1 (stereo not shown) = 155 to 157 °C

*Q* Any idea what melting point was measured for COc1ccc(N2C(=O)C(C)SC2c2c(-c3ccccc3)nc3sccn23)cc1 (stereo not shown) ?
*A* 162 to 164 °C

*Q* Same thing, different compound: CC1SC(c2c(-c3ccccc3)nc3sccn23)N(c2ccc([N+](=O)[O-])cc2)C1=O (stereo not shown)
*A* 187 to 189 °C

====

# methodDescription: Acute oral toxicity study
# conditionInfo: Wistar, rat, in vivo, 500 mg/kg
experimentalReadout: LD50 at 14 days

CC1SC(c2c(-c3ccccc3)nc3sccn23)N(c2ccc(Cl)cc2)C1=O (centres unmarked) = > 500 mg/kg

Lab note: next molecule to report on.
*Q* Any idea what LD50 at 14 days was measured for CC1SC(c2c(-c3ccccc3)nc3sccn23)N(c2ccc(Br)cc2)C1=O (centres unmarked) ?
*A* > 500 mg/kg

====

# systemName: Bovine serum albumin (BSA) (Bos taurus)
# methodDescription: BSA (protein albumin) denaturation inhibition assay
# conditionInfo: read-out: BSA denaturation inhibition assay % inhibition of denaturation, 100 μg/mL
experimentalReadout: inhibition at 100 µg/mL (%)

O=C1CSC(c2c(-c3ccccc3)nc3sccn23)N1c1ccc(Br)cc1 (stereo not drawn) = 76.6
Cc1ccc(N2C(=O)C(C)SC2c2c(-c3ccccc3)nc3sccn23)cc1 (stereo not drawn) = 60.6
CC1SC(c2c(-c3ccccc3)nc3sccn23)N(c2ccc(Cl)cc2Cl)C1=O (stereo not drawn) = 82
COc1ccc(N2C(=O)CSC2c2c(-c3ccccc3)nc3sccn23)cc1 (stereo not drawn) = 59.9
Cc1ccc(N2C(=O)CSC2c2c(-c3ccccc3)nc3sccn23)cc1 (stereo not drawn) = 79.9
COc1ccc(N2C(=O)C(C)SC2c2c(-c3ccccc3)nc3sccn23)cc1 (stereo not drawn) = 62.1
CC1SC(c2c(-c3ccccc3)nc3sccn23)N(c2ccc([N+](=O)[O-])cc2)C1=O (stereo not drawn) = 61.1
O=C1CSC(c2c(-c3ccccc3)nc3sccn23)N1c1ccc(Cl)cc1 (stereo not drawn) = 79.9
CC1SC(c2c(-c3ccccc3)nc3sccn23)N(c2ccc(F)cc2)C1=O (stereo not drawn) = 82.1

====

Measured Activity relative to standard drug values are reported for all entries that follow.
# Test system: carrageenan-induced rat hind paw edema
# methodDescription: Carrageenan-induced rat paw edema inhibition assay
# Assay type: in vivo
# conditionInfo: relative to diclofenac sodium, after 4 h
Give the figure only, with no unit attached.

CC1SC(c2c(-c3ccccc3)nc3sccn23)N(c2ccc(F)cc2)C1=O (stereo not drawn) [Compound 4a] = 98.91
CC1SC(c2c(-c3ccccc3)nc3sccn23)N(c2ccc(Br)cc2)C1=O (stereo not drawn) [Compound 4c] = 99.82
CC1SC(c2c(-c3ccccc3)nc3sccn23)N(c2ccc(Cl)cc2Cl)C1=O (stereo not drawn) [Compound 4d] = 84.39
O=C1CSC(c2c(-c3ccccc3)nc3sccn23)N1c1ccc(Cl)cc1 (stereo not drawn) [Compound 5a] = 94.92
O=C1CSC(c2c(-c3ccccc3)nc3sccn23)N1c1ccc(Br)cc1 (stereo not drawn) [Compound 5b] = 93.10

Lab note: next compound to report on.
*Q* Any idea what Activity relative to standard drug was measured for CC1SC(c2c(-c3ccccc3)nc3sccn23)N(c2ccc(Cl)cc2)C1=O (stereo not drawn) [Compound 4b] ?
*A* 101.27

====

# Test system: gastric mucosa tissue of rats
# methodDescription: Lipid peroxidation in gastric mucosa
# Format: in vivo, rat
# conditionInfo: oral 0.0942 mmol/kg
experimentalReadout: Lipid peroxidation (Nmol MDA/100 mg tissue)

O=C1CSC(c2c(-c3ccccc3)nc3sccn23)N1c1ccc(Br)cc1 (stereo not drawn) [Compound 5b] = 5.68
O=C1CSC(c2c(-c3ccccc3)nc3sccn23)N1c1ccc(Cl)cc1 (stereo not drawn) [Compound 5a] = 5.75
CC1SC(c2c(-c3ccccc3)nc3sccn23)N(c2ccc(Cl)cc2)C1=O (stereo not drawn) [Compound 4b] = 4.12
CC1SC(c2c(-c3ccccc3)nc3sccn23)N(c2ccc(Br)cc2)C1=O (stereo not drawn) [Compound 4c] = 5.37
CC1SC(c2c(-c3ccccc3)nc3sccn23)N(c2ccc(F)cc2)C1=O (stereo not drawn) [Compound 4a] = 5.98
CC1SC(c2c(-c3ccccc3)nc3sccn23)N(c2ccc(Cl)cc2Cl)C1=O (stereo not drawn) [Compound 4d] = 6.16

====

# systemName: Bovine serum albumin (BSA) (Bos taurus, UniProt P02769)
# Sequence (P02769 25-607): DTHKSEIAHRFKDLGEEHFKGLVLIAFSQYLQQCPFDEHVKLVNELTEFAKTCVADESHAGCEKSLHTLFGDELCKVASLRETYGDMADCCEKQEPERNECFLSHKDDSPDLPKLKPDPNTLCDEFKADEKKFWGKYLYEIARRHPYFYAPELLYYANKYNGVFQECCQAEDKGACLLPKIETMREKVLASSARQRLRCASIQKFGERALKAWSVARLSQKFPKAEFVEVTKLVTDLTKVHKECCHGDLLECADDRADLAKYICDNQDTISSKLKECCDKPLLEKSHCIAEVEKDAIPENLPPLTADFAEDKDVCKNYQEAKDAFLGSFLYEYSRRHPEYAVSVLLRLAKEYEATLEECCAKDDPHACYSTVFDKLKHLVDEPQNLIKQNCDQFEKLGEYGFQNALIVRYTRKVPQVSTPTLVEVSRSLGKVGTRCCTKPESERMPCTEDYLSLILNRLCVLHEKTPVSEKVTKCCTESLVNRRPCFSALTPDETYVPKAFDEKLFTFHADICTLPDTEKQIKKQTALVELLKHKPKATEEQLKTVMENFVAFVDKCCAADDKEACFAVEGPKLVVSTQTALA
# methodDescription: BSA (protein albumin) denaturation inhibition assay
# conditionInfo: 100 μg/mL, 660 nm
experimentalReadout: BSA denaturation inhibition assay Mean absorbance ± SEM

O=C1CSC(c2c(-c3ccccc3)nc3sccn23)N1c1ccc(Br)cc1 (stereo not shown) [Compound 5b] = 0.317
COc1ccc(N2C(=O)CSC2c2c(-c3ccccc3)nc3sccn23)cc1 (stereo not shown) [Compound 5d] = 0.287
CC1SC(c2c(-c3ccccc3)nc3sccn23)N(c2ccc([N+](=O)[O-])cc2)C1=O (stereo not shown) [Compound 4e] = 0.289
CC1SC(c2c(-c3ccccc3)nc3sccn23)N(c2ccc(Br)cc2)C1=O (stereo not shown) [Compound 4c] = 0.332
Cc1ccc(N2C(=O)CSC2c2c(-c3ccccc3)nc3sccn23)cc1 (stereo not shown) [Compound 5c] = 0.314
CC1SC(c2c(-c3ccccc3)nc3sccn23)N(c2ccc(Cl)cc2Cl)C1=O (stereo not shown) [Compound 4d] = 0.326
CC1SC(c2c(-c3ccccc3)nc3sccn23)N(c2ccc(Cl)cc2)C1=O (stereo not shown) [Compound 4b] = 0.329
Cc1ccc(N2C(=O)C(C)SC2c2c(-c3ccccc3)nc3sccn23)cc1 (stereo not shown) [Compound 4f] = 0.288
COc1ccc(N2C(=O)C(C)SC2c2c(-c3ccccc3)nc3sccn23)cc1 (stereo not shown) [Compound 4g] = 0.291
O=C1CSC(c2c(-c3ccccc3)nc3sccn23)N1c1ccc(Cl)cc1 (stereo not shown) [Compound 5a] = 0.323

====

Measured IC50 values are reported for all entries that follow.
# Tested on: HCT116 human colorectal cancer cell line
# methodDescription: MTT cytotoxicity assay, HCT116
# conditionInfo: HCT-116, 72 h, read-out: IC50 (µM) (Mean ± SD) HCT116
Return type: number; implicit unit µM.

CC1SC(c2c(-c3ccccc3)nc3sccn23)N(c2ccc(Br)cc2)C1=O (stereo not drawn) [Compound 4c] = 23.2

*Q* Param readout = IC50; param system = HCT116 human colorectal cancer cell line; param query = C#Cc1cccc(Nc2ncnc3cc(OCCOC)c(OCCOC)cc23)c1 [Erlotinib, reference compound] ; response: value
*A* 12.5

*Q* Same thing, different compound: CC1SC(c2c(-c3ccccc3)nc3sccn23)N(c2ccc(F)cc2)C1=O (stereo not drawn) [Compound 4a]
*A* 23.7

*Q* Same thing, different compound: CC1SC(c2c(-c3ccccc3)nc3sccn23)N(c2ccc(Cl)cc2)C1=O (stereo not drawn) [Compound 4b]
*A* 45

*Q* Same thing, different compound: CC1SC(c2c(-c3ccccc3)nc3sccn23)N(c2ccc(Cl)cc2Cl)C1=O (stereo not drawn) [Compound 4d]
*A* 49.5

*Q* Same thing, different compound: COc1ccc(N2C(=O)C(C)SC2c2c(-c3ccccc3)nc3sccn23)cc1 (stereo not drawn) [Compound 4g]
*A* 76.3
